# SUBJECT OF TEST: Cytochrome P450 11B1, mitochondrial (Homo sapiens, UniProt P15538)
# Sequence (P15538 whole entry): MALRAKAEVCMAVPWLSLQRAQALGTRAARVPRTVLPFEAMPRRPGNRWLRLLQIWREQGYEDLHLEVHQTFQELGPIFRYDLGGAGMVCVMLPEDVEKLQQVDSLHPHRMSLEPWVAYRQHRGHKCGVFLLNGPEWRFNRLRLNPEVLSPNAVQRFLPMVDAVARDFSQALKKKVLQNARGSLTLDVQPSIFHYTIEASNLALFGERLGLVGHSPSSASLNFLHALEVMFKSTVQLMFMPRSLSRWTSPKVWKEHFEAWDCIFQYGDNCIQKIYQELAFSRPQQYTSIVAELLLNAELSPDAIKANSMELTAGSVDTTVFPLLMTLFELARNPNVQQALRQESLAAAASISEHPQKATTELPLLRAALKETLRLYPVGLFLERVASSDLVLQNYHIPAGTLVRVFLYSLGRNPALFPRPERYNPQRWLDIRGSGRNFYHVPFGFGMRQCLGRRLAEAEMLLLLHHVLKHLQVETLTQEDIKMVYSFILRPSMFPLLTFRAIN
# ASSAY EXPLANATION: Inhibition of human CYP11B1 expressed in V79 MZh cells using [14C]-deoxycorticosterone substrate incubated for 6 hrs by HPTLC method
PARAMETER MEASURED: IC50 (µM)
Answer format: numeric, µM implied, no suffix.

Bench note: what IC50 did Cc1nnc2n1-c1c(F)cc(-c3cncc(F)c3)cc1CC2 show? 29.5
